Readings of log10 IC50 for the listed compounds
Tested on: H1975 (EGFR L858R/T790M double mutation)
PROTOCOL_SUMMARY: Cell antiproliferative assay (CTG, 72 h), H1975
Type: cell-based, human
EXPERIMENTAL_PARAMETERS: Homo sapiens, NCI-H1975, 72 h, Table 3, H1975 cells
On a log10 scale: recorded IC50, unit nM.

Data request: Entry COc1cc(N2CCC(N3CCN(C(=O)C4CCN(CC5CCN(c6ccc7c(c6)C(=O)N(C6CCC(=O)NC6=O)C7=O)CC5)CC4)CC3)CC2)ccc1Nc1ncc(Cl)c(Nc2ccccc2P(C)(C)=O)n1 (centres unmarked) [Comparative Compound 2, reference compound] , system H1975 (EGFR L858R/T790M double mutation): what log10 IC50 was measured?
Data returned: 2.27

Data request: Kindly state the measured log10 IC50 obtained for COc1cc(N2CCN(C(=O)CN3CCC(c4ccc(NC5CCC(=O)NC5=O)cc4)CC3)CC2)ccc1Nc1ncc(Cl)c(Nc2ccccc2C(C)=O)n1 (centres unmarked) [Compound T-12] with H1975 (EGFR L858R/T790M double mutation).
Data returned: 1.54

Data request: Which measured log10 IC50 belongs to COc1cc(N2CCC(N3CCN(C(=O)CCCCN4CCN(c5ccc6c(c5)C(=O)N(C5CCC(=O)NC5=O)C6=O)CC4)CC3)CC2)ccc1Nc1ncc(Cl)c(Nc2ccccc2N(C)S(C)(=O)=O)n1 (centres unmarked) [Comparative Compound 3, reference compound] , tested on H1975 (EGFR L858R/T790M double mutation)?
Data returned: 2.59

More entries:
Data request: Record lookup: for H1975 (EGFR L858R/T790M double mutation), what log10 IC50 belongs to CNC(=O)c1ccccc1Nc1nc(Nc2ccc(N3CCN(C(=O)CN4CCC(c5ccc(NC6CCC(=O)NC6=O)cc5)CC4)CC3)cc2OC)ncc1Cl (centres unmarked) [Compound T-184] ?
Data returned: 0.89

Data request: Look up log10 IC50 with H1975 (EGFR L858R/T790M double mutation) for this compound: O=C1CCC(Nc2ccc(C3CCN(CC(=O)N4CCN(c5ccc(-c6cc(F)c7c(c6)C(=O)N(C(C(=O)Nc6nccs6)c6ncn8c6CCC8)C7)cc5)CC4)CC3)cc2)C(=O)N1 (centres unmarked) [Comparative Compound 1, reference compound]
Data returned: 2.74

----------
Tested on: H1975 (EGFR L858R/T790M double mutation)
PROTOCOL_SUMMARY: Cell antiproliferative assay (CTG, 72 h), H1975
Format: cell-based, human
EXPERIMENTAL_PARAMETERS: Homo sapiens, NCI-H1975, 72 h, Table 2, H1975 cells
Here the recorded IC50 is given for each entry.

Here's what some known entries look like.
Data request: Need IC50 of COc1cc(N2CC(NC(=O)CN3CCC(c4ccc(NC5CCC(=O)NC5=O)cc4)CC3)C2)ccc1Nc1ncc(Cl)c(Nc2ccccc2C(C)=O)n1 (centres unmarked) [Compound T-169] , thanks.
Data returned: 100 to 1000 nM

Data request: Find the recorded IC50 belonging to CCc1cc(Nc2ncc(Cl)c(Nc3ccccc3C(C)=O)n2)c(OC)cc1N1CCN(C(=O)CN2CCC(c3ccc(NC4CCC(=O)NC4=O)cc3)CC2)CC1 (centres unmarked) [Compound T-378] and report it.
Data returned: 10 to 100 nM

Data request: Using the record for CNC(=O)c1ccccc1Nc1nc(Nc2ccc(N3CCN(C(=O)CN4CCC(c5ccc(NC6CCC(=O)NC6=O)cc5)CC4)CC3)cc2OC)ncc1Cl (centres unmarked) [Compound T-184] , report its IC50.
Data returned: ≤ 10 nM

Data request: Bench note: what IC50 did COc1cc(N2CCN(C(=O)CN3CCC(c4ccc(NC5CCC(=O)NC5=O)cc4)CC3)CC2)ccc1Nc1ncc(C(F)(F)F)c(-c2cn(C)c3ccccc23)n1 (centres unmarked) [Compound T-135] show?
Data returned: 100 to 1000 nM

Others:
Data request: Quick one: IC50 of COc1cc(N2CCN(C(=O)CN3CCC(c4ccc(NC5CCC(=O)NC5=O)cc4)CC3)CC2)ccc1Nc1ncc(Cl)c(Nc2ccc(F)cc2C(C)(C)O)n1 (centres unmarked) [Compound T-199] ?
Data returned: 10 to 100 nM

Data request: Reported IC50, compound CC(=O)c1ccccc1Nc1nc(Nc2ccc(N3CCN(C(=O)CN4CCC(c5ccc(NC6CCC(=O)NC6=O)cc5)CC4)CC3)cc2Cl)ncc1Cl (centres unmarked) [Compound T-333] : ____
Data returned: 100 to 1000 nM

Data request: Given CNC(=O)c1ccccc1Nc1nc(Nc2cc(C)c(N3CCN(C(=O)CN4CCC(c5ccc(NC6CCC(=O)NC6=O)cc5)CC4)CC3C)cc2OC)ncc1Br (centres unmarked) [Compound T-359] , state its recorded IC50.
Data returned: 10 to 100 nM

Data request: Fill blank: measured IC50 of the compound COc1cc(N2CCN(C(=O)CN3CCC(c4ccc(NC5CCC(=O)NC5=O)cc4)CC3)C(C)C2)ccc1Nc1ncc(Cl)c(Nc2ccccc2C(C)=O)n1 (centres unmarked) [Compound T-63] is ____.
Data returned: 10 to 100 nM

Data request: Can you look up the measured IC50 of CP(C)(=O)c1ccccc1Nc1nc(Nc2ccc(N3CCN(C(=O)CN4CCC(c5ccc(NC6CCC(=O)NC6=O)cc5)CC4)CC3)cc2Cl)ncc1Cl (centres unmarked) [Compound T-330] for me?
Data returned: 100 to 1000 nM

Data request: Report IC50 for COc1ccc(Nc2nc(Nc3ccc(N4CCN(C(=O)CN5CCC(c6ccc(NC7CCC(=O)NC7=O)cc6)CC5)CC4)cc3OC)ncc2Cl)c(C(C)=O)c1 (centres unmarked) [Compound T-249] please.
Data returned: ≤ 10 nM

Data request: Quick check: IC50 of CNC(=O)c1ccccc1Nc1nc(Nc2cc(C)c(N3CCN(C(=O)CN4CCN(c5ccc(NC6CCC(=O)NC6=O)cc5)CC4)CC3)cc2OC)ncc1Cl (centres unmarked) [Compound T-364] ?
Data returned: 10 to 100 nM

----------
Tested on: HCC827 (exon 19 deletion mutation)
PROTOCOL_SUMMARY: Cell antiproliferative assay (CTG, 72 h), HCC827
Type: cell-based, human
EXPERIMENTAL_PARAMETERS: Homo sapiens, HCC827, 72 h, Table 2, HCC827 cells
ASSAY_READOUT: IC50

Data request: Any idea what IC50 was measured for COc1cc(N2CCN(C(=O)CN3CCC(c4ccc(CN5CCC(=O)NC5=O)cc4)CC3)CC2)ccc1Nc1ncc(Cl)c(Nc2ccccc2C(C)=O)n1 ?
Data returned: 100 to 1000 nM

Next:
Data request: // IC50 lookup, key: COc1cc(N2CCN(C(=O)CN3CCN(c4ccc(NC5CCC(=O)NC5=O)cc4)CC3)CC2)ccc1Nc1ncc(Br)c(Nc2ccccc2C(C)=O)n1 (centres unmarked)
Data returned: 100 to 1000 nM

----------
System: H1975 (EGFR L858R/T790M double mutation)
PROTOCOL_SUMMARY: Cell antiproliferative assay (CTG, 72 h), H1975
Type: cell-based, human
EXPERIMENTAL_PARAMETERS: Homo sapiens, NCI-H1975, 72 h, Table 2, H1975 cells
ASSAY_READOUT: IC50

Data request: Look up IC50 with H1975 (EGFR L858R/T790M double mutation) for this compound: COc1cc(N2CCN(CC(=O)N3CCC(c4ccc(NC5CCC(=O)NC5=O)cc4)CC3)CC2)ccc1Nc1ncc(Cl)c(Nc2ccccc2C(C)=O)n1 (stereo not drawn)
Data returned: 100 to 1000 nM

Data request: So what IC50 did C=CC(=O)Nc1cc(Nc2ncc(C(F)(F)F)c(Nc3ccccc3)n2)c(OC)cc1N1CCN(C(=O)CN2CCC(c3ccc(NC4CCC(=O)NC4=O)cc3)CC2)CC1 (stereo not drawn) get with H1975 (EGFR L858R/T790M double mutation)?
Data returned: 100 to 1000 nM

Data request: H1975 (EGFR L858R/T790M double mutation) / IC50 / COc1cc(C2CCN(C(=O)CN3CCC(c4ccc(NC5CCC(=O)NC5=O)cc4)CC3)CC2)ccc1Nc1ncc(Cl)c(Nc2ccccc2P(C)(C)=O)n1 (stereo not drawn) : value?
Data returned: 100 to 1000 nM

----------
SYSTEM: EGFR (Homo sapiens, UniProt P00533, DEL746-750)
Construct: host or cells: HCC827
Sequence (P00533 with tags, fused parts or gaps DEL746-750): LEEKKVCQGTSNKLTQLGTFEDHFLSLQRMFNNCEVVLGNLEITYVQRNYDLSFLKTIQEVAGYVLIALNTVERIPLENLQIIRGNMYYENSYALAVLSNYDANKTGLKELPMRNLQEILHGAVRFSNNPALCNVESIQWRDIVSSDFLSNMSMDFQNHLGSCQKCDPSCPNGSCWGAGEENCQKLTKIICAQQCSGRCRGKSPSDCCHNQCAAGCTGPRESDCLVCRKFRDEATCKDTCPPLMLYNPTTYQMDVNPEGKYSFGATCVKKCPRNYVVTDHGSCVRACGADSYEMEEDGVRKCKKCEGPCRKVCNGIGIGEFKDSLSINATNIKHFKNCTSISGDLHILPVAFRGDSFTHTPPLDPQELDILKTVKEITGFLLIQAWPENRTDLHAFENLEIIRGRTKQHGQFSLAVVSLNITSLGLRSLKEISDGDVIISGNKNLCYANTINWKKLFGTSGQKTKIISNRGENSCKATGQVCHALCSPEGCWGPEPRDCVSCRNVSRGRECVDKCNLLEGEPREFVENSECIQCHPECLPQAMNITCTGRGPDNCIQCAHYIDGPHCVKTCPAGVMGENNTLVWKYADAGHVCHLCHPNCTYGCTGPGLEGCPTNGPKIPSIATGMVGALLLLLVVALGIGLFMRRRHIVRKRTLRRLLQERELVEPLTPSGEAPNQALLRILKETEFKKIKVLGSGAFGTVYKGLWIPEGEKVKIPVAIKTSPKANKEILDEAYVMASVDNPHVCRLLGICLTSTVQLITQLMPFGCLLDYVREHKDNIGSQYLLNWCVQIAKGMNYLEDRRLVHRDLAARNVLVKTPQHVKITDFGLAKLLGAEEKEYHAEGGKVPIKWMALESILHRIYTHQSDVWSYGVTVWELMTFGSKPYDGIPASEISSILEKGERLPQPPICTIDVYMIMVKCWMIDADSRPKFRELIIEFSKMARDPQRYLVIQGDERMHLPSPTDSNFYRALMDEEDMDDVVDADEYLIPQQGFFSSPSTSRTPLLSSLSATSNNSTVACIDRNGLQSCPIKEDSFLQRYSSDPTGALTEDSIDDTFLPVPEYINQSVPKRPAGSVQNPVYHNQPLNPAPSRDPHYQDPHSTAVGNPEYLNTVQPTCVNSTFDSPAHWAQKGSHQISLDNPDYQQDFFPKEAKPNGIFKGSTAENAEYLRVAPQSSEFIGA
PROTOCOL_SUMMARY: EGFR PROTAC In Cell Western assay in HCC827
Type: cell-based
EXPERIMENTAL_PARAMETERS: HCC827, Table 4; HCC827, EGFR degradation, 16 hours of incubation
ASSAY_READOUT: Dmax

Reference set, count: 2
Data request: Could you tell me which Dmax is on file for COc1cc(N2CC3CC(C2)N3C(=O)CN2CCC(c3ccc(NC4CCC(=O)NC4=O)cc3)CC2)ccc1Nc1ncc(Cl)c(Nc2ccccc2C(C)=O)n1 (stereo not drawn) ?
Data returned: < 50%

Data request: What value of Dmax has been recorded for this entry: COc1cc(N2CCN(C(=O)CN3CCN(c4ccc(NC5CCC(=O)NC5=O)nc4)CC3)CC2)ccc1Nc1ncc(Cl)c(Nc2ccccc2C(C)=O)n1 (stereo not drawn)
Data returned: 50 to 70%

Next:
Data request: Find the recorded Dmax belonging to COc1cc(C2CCN(C(=O)CN3CCC(c4ccc(NC5CCC(=O)NC5=O)cc4)CC3)CC2)ccc1Nc1ncc(Cl)c(Nc2ccccc2C(C)=O)n1 (stereo not drawn) and report it.
Data returned: < 50%
